- Tested on: 439559-082-T-J2-PDC spheroids viability
- protocol summary: Anticancer human tumor 439559-082-T-J2-PDC patient-derived colon adenocarcinoma cell line growth inhibition [GQUAD]
- condition summary: second compound 0.0316 µM; first compound 3.16 µM; stronger effect = lower value
Would you mind telling me the reported viability, T/C of each entry?
Give bare numbers, in %.

Use the examples below as a reference point.
* COc1ccc([C@@H](O)c2cc(-c3ncnc4cc(N5CCOCC5)ccc34)c(F)cc2Cl)nn1 + Cc1cnc(CNC(=O)c2c(=O)c3ccc(N4CCCN(C)CC4)nc3n3c2sc2ccccc23)cn1 | 75.8
* CC(C)n1c(=O)n(C)c2cnc3cc(F)c(-c4ccc(OCCCN5CCCCC5)nc4)cc3c21 + Cc1[nH]c2ccc(F)cc2c1-c1nc2c3cccnc3c3ncccc3c2[nH]1 | 130

Switching to the query record.
The measured viability, T/C associated with COc1ccc([C@@H](O)c2cc(-c3ncnc4cc(N5CCOCC5)ccc34)c(F)cc2Cl)nn1 + Cc1[nH]c2ccc(F)cc2c1-c1nc2c3cccnc3c3ncccc3c2[nH]1 reads 85

---

- System: 439559-082-T-J2-PDC spheroids viability
- protocol summary: Anticancer human tumor 439559-082-T-J2-PDC cell line growth inhibition [GQUAD];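 also: spheroids exposed to the agents for 7 days before readout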;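 as to viability, T/C: percent of luminescence signal in DMSO vehicle wells taken as 100% viability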
- condition summary: second compound 3.16 µM; first compound 0.316 µM; stronger effect = lower value
Classes are defined on viability, T/C with ranges bottom bin = under 70%, middle bin = from 70% up to 80%, top bin = 80% and over

* Nc1ccn(C2OC(CO)C(O)C2(F)F)c(=O)n1 (stereo not given) + Cc1[nH]c2ccc(F)cc2c1-c1nc2c3cccnc3c3ncccc3c2[nH]1 | bottom bin
* CC1COCCN1c1cc(C2(O)CC3CCC(C2)O3)c2cnn(-c3ccn[nH]3)c2n1 (stereo not given) + CN(C)c1ccc(Nc2c3ccc(NC(=O)CCN4CCCC4)cc3nc3cc(NC(=O)CCN4CCCC4)ccc23)cc1 | middle bin
* CC[C@@]1(O)C(=O)OCc2c1cc1n(c2=O)Cc2cc3c(CN(C)C)c(O)ccc3nc2-1 + Cc1cnc(CNC(=O)c2c(=O)c3ccc(N4CCCN(C)CC4)nc3n3c2sc2ccccc23)cn1 | bottom bin
* O=C(NO)c1cnc(N2CCN(S(=O)(=O)c3ccc4ccccc4c3)CC2)nc1 + Cc1[nH]c2ccc(F)cc2c1-c1nc2c3cccnc3c3ncccc3c2[nH]1 | bottom bin
* Cc1cccc(N(C)C(=O)C2C(O)CCN2c2nc(C)cc(C(F)(F)F)c2C#N)c1 (stereo not given) + CN(C)c1ccc(Nc2c3ccc(NC(=O)CCN4CCCC4)cc3nc3cc(NC(=O)CCN4CCCC4)ccc23)cc1 | top bin

Now consider the entry below.
Exam item: Consider CC(C)(O)C1CCC(Nc2ccc3ncc(-c4cccc(C(F)(F)F)c4)n3n2)CC1 (stereo not given) + Cc1[nH]c2ccc(F)cc2c1-c1nc2c3cccnc3c3ncccc3c2[nH]1 . To which viability, T/C class does it belong?
Marked response: bottom bin

---

- Test system: 439559-082-T-J2-PDC spheroids viability
- protocol summary: Anticancer human tumor 439559-082-T-J2-PDC cell line growth inhibition [GQUAD];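 also: spheroids exposed to the agents for 7 days before readout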;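 as to viability, T/C: percent of luminescence signal in DMSO vehicle wells taken as 100% viability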
- condition summary: second compound 10 µM; first compound 0.000999 µM; stronger effect = lower value
Would you mind telling me the reported viability, T/C of each entry?
Numbers only, in %.

• Cn1ncnc1[C@H]1c2n[nH]c(=O)c3cc(F)cc(c23)N[C@@H]1c1ccc(F)cc1 + Cc1[nH]c2ccc(F)cc2c1-c1nc2c3cccnc3c3ncccc3c2[nH]1 = 85.7
• CCc1c2c(nc3ccc(O)cc13)-c1cc3c(c(=O)n1C2)COC(=O)[C@]3(O)CC + Cc1cnc(CNC(=O)c2c(=O)c3ccc(N4CCCN(C)CC4)nc3n3c2sc2ccccc23)cn1 = 60.6
• Cc1[nH]c2ccccc2c1CCNCc1ccc(/C=C/C(=O)NO)cc1 + CN(C)c1ccc(Nc2c3ccc(NC(=O)CCN4CCCC4)cc3nc3cc(NC(=O)CCN4CCCC4)ccc23)cc1 = 96.1
• CCc1c2c(nc3ccc(O)cc13)-c1cc3c(c(=O)n1C2)COC(=O)[C@]3(O)CC + Cc1[nH]c2ccc(F)cc2c1-c1nc2c3cccnc3c3ncccc3c2[nH]1 = 73
• Cc1[nH]c2ccccc2c1CCNCc1ccc(/C=C/C(=O)NO)cc1 + Cc1[nH]c2ccc(F)cc2c1-c1nc2c3cccnc3c3ncccc3c2[nH]1 = 74
• Cn1ncnc1[C@H]1c2n[nH]c(=O)c3cc(F)cc(c23)N[C@@H]1c1ccc(F)cc1 + Cc1cnc(CNC(=O)c2c(=O)c3ccc(N4CCCN(C)CC4)nc3n3c2sc2ccccc23)cn1 = 65

Switching to the query record.
Tested on 439559-082-T-J2-PDC spheroids viability, the item CCc1c2c(nc3ccc(O)cc13)-c1cc3c(c(=O)n1C2)COC(=O)[C@]3(O)CC + CN(C)c1ccc(Nc2c3ccc(NC(=O)CCN4CCCC4)cc3nc3cc(NC(=O)CCN4CCCC4)ccc23)cc1 showed viability, T/C equal to 106

---

- Tested on: 439559-082-T-J2-PDC spheroids viability
- protocol summary: Anticancer human tumor 439559-082-T-J2-PDC cell line growth inhibition [GQUAD];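 also: spheroids exposed to the agents for 7 days before readout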
- condition summary: curve of first compound; second compound 0.316 µM
Would you mind telling me the reported IC50 of each entry?
Numbers only, in µM.

- CC1COCCN1c1cc(-c2ccnn2C)c2ccnc(-c3ccn[nH]3)c2n1 (stereo not given) + Cc1cnc(CNC(=O)c2c(=O)c3ccc(N4CCCN(C)CC4)nc3n3c2sc2ccccc23)cn1: 0.0809

Switching to the query record.
The measured IC50 associated with COc1cccc2c1C(=O)c1c(O)c3c(c(O)c1C2=O)CC(O)(C(=O)CO)CC3OC1CC(N)C(O)C(C)O1 (stereo not given) + CN(C)c1ccc(Nc2c3ccc(NC(=O)CCN4CCCC4)cc3nc3cc(NC(=O)CCN4CCCC4)ccc23)cc1 reads 6.45

---

Would you mind telling me the reported viability, T/C of each entry?
- Tested on: 439559-082-T-J2-PDC spheroids viability
- protocol summary: Anticancer human tumor 439559-082-T-J2-PDC cell line growth inhibition [GQUAD];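 also: spheroids exposed to the agents for 7 days before readout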;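 as to viability, T/C: percent of luminescence signal in DMSO vehicle wells taken as 100% viability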
- condition summary: second compound 10 µM; first compound 10 µM; stronger effect = lower value
One number for each entry, in %.

Use the examples below as a reference point.
* CC(C)(O)C1CCC(Nc2ccc3ncc(-c4cccc(C(F)(F)F)c4)n3n2)CC1 (stereo not given) + Cc1[nH]c2ccc(F)cc2c1-c1nc2c3cccnc3c3ncccc3c2[nH]1 | 38.2
* COc1ncnc(C2CC2)c1-c1ncc2cnn(Cc3ccc(-c4nc(C(F)(F)F)cn4C(C)C)cc3)c2n1 + Cc1cnc(CNC(=O)c2c(=O)c3ccc(N4CCCN(C)CC4)nc3n3c2sc2ccccc23)cn1 | 63.9
* C=CC(=O)N1CCN(c2nc(=O)n(-c3c(C)ccnc3C(C)C)c3nc(-c4c(O)cccc4F)c(F)cc23)C(C)C1 (stereo not given) + CN(C)c1ccc(Nc2c3ccc(NC(=O)CCN4CCCC4)cc3nc3cc(NC(=O)CCN4CCCC4)ccc23)cc1 | 100
* O=c1[nH]cc(F)c(=O)[nH]1 + Cc1[nH]c2ccc(F)cc2c1-c1nc2c3cccnc3c3ncccc3c2[nH]1 | 59.8

Switching to the query record.
The measured viability, T/C associated with COc1cccc2c1C(=O)c1c(O)c3c(c(O)c1C2=O)CC(O)(C(=O)CO)CC3OC1CC(N)C(O)C(C)O1 (stereo not given) + CN(C)c1ccc(Nc2c3ccc(NC(=O)CCN4CCCC4)cc3nc3cc(NC(=O)CCN4CCCC4)ccc23)cc1 reads 46.8

---

Would you mind telling me the reported viability, T/C of each entry?
- System: 439559-082-T-J2-PDC spheroids viability
- protocol summary: Anticancer human tumor 439559-082-T-J2-PDC cell line growth inhibition [GQUAD];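 also: spheroids exposed to the agents for 7 days before readout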;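 as to viability, T/C: percent of luminescence signal in DMSO vehicle wells taken as 100% viability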
- condition summary: second compound 3.16 µM; first compound 0.316 µM; stronger effect = lower value
Numbers only, in %.

Use the examples below as a reference point.
* CC1COCCN1c1cc(-c2ccnn2C)c2ccnc(-c3ccn[nH]3)c2n1 (centres undefined) + Cc1[nH]c2ccc(F)cc2c1-c1nc2c3cccnc3c3ncccc3c2[nH]1 | 40.6
* COc1ccc([C@@H](O)c2cc(-c3ncnc4cc(N5CCOCC5)ccc34)c(F)cc2Cl)nn1 + CN(C)c1ccc(Nc2c3ccc(NC(=O)CCN4CCCC4)cc3nc3cc(NC(=O)CCN4CCCC4)ccc23)cc1 | 92.6
* COc1cc(C2c3cc4c(cc3C(OC3OC5COC(C)OC5C(O)C3O)C3COC(=O)C23)OCO4)cc(OC)c1O (centres undefined) + CN(C)c1ccc(Nc2c3ccc(NC(=O)CCN4CCCC4)cc3nc3cc(NC(=O)CCN4CCCC4)ccc23)cc1 | 104

Switching to the query record.
Tested on 439559-082-T-J2-PDC spheroids viability, the item O=c1[nH]cc(F)c(=O)[nH]1 + Cc1cnc(CNC(=O)c2c(=O)c3ccc(N4CCCN(C)CC4)nc3n3c2sc2ccccc23)cn1 showed viability, T/C equal to 63
